Source listed as BindingDB's records for doi:10.1016/s0960-894x(99)00197-3.

# Method notes: Inhibition of [3H]S-(p-F-Phe)-Har-L-Har-KY-NH2 binding to Thrombin receptor 1 (PAR-1) on membranes from CHRF cells
pEC50: −log10 of the molar value. Where a SMILES comes first, the peptide text is derived from it. [ ]: non-standard residue; d: D form. The star is where a group is joined. Cha = N[C@@H](CC1CCCCC1)C(=O)O; Nicotinoyl = O=C(c1cccnc1)*; 3Abz = Nc1cccc(C(=O)O)c1
pEC50 of 5 or higher: yes (1). Under 5: no (0).

# Compound, Answer label
measured = [
    ("N=C(N)NCCC[C@H](NC(=O)[C@H](CC1CCCCC1)NC(=O)c1nnc(NC(=O)C=Cc2cccs2)[nH]1)C(=O)N[C@@H](Cc1ccccc1)C(N)=O", "yes (1)"),
    ("N=C(N)NCCC[C@H](NC(=O)[C@H](CC1CCCCC1)NC(=O)c1cccnc1)C(=O)N[C@@H](Cc1ccccc1)C(N)=O (Nicotinoyl-[Cha]-Arg-Phe-NH2)", "yes (1)"),
    ("N=C(N)NCCC[C@H](NC(=O)[C@H](CC1CCCCC1)NC(=O)c1nnc(NC(=O)C=Cc2ccc(Cl)cc2)[nH]1)C(=O)N[C@@H](Cc1ccccc1)C(N)=O", "no (0)"),
    ("N=C(N)NCCC[C@H](NC(=O)[C@H](CC1CCCCC1)NC(=O)c1ccccn1)C(=O)N[C@@H](Cc1ccccc1)C(N)=O", "no (0)"),
    ("N=C(N)NCCC[C@H](NC(=O)[C@H](CC1CCCCC1)NC(=O)c1nnc(NC(=O)C=Cc2ccc(C(F)(F)F)cc2)[nH]1)C(=O)N[C@@H](Cc1ccccc1)C(N)=O", "yes (1)"),
    ("N=C(N)NCCC[C@H](NC(=O)[C@H](CC1CCCCC1)NC(=O)c1cccc(N)c1)C(=O)N[C@@H](Cc1ccccc1)C(N)=O (H-[3Abz][Cha]RF-NH2)", "yes (1)"),
    ("N=C(N)NCCC[C@H](NC(=O)[C@H](CC1CCCCC1)NC(=O)c1ccc2c(c1)-c1ccccc1-2)C(=O)N[C@@H](Cc1ccccc1)C(N)=O", "yes (1)"),
    ("N=C(N)NCCC[C@H](NC(=O)[C@H](CC1CCCCC1)NC(=O)c1ccc(N)nc1)C(=O)N[C@@H](Cc1ccccc1)C(N)=O", "yes (1)"),
    ("N=C(N)NCCC[C@H](NC(=O)[C@H](CC1CCCCC1)NC(=O)c1nnc(NC(=O)C=Cc2c[nH]c3ccccc23)[nH]1)C(=O)N[C@@H](Cc1ccccc1)C(N)=O", "no (0)"),
    ("N=C(N)NCCC[C@H](NC(=O)[C@H](CC1CCCCC1)NC(=O)c1cnc2ccccc2n1)C(=O)N[C@@H](Cc1ccccc1)C(N)=O", "yes (1)"),
    ("N=C(N)NCCC[C@H](NC(=O)[C@H](CC1CCCCC1)NC(=O)c1csnn1)C(=O)N[C@@H](Cc1ccccc1)C(N)=O", "yes (1)"),
]

====

# Method notes: Activation of human platelet aggregation (gel-filtered platelets) induced by alpha thrombin

# Smiles code, Unit abbrev, EC50
measured = [
    ("N=C(N)NCCC[C@H](NC(=O)[C@H](CC1CCCCC1)NC(=O)c1cc(=O)c2ccccc2o1)C(=O)N[C@@H](Cc1ccccc1)C(N)=O", "nM", 510),
    ("N=C(N)NCCC[C@H](NC(=O)[C@H](CC1CCCCC1)NC(=O)c1nnc(NC(=O)C=Cc2cccc(Cl)c2)[nH]1)C(=O)N[C@@H](Cc1ccccc1)C(N)=O", "nM", 2400),
    ("NCCCC[C@H](NC(=O)[C@H](CC1CCCCC1)NC(=O)c1nnc(N)[nH]1)C(=O)N[C@@H](Cc1ccccc1)C(N)=O", "nM", 3900),
    ("N=C(N)NCCC[C@H](NC(=O)[C@H](CC1CCCCC1)NC(=O)c1nnc(NC(=O)C=Cc2cccc3ccccc23)[nH]1)C(=O)N[C@@H](Cc1ccccc1)C(N)=O", "nM", 1000),
    ("N=C(N)NCCC[C@H](NC(=O)[C@H](CC1CCCCC1)NC(=O)c1nccnc1N)C(=O)N[C@@H](Cc1ccccc1)C(N)=O", "nM", 4200),
]

====

# Method notes: Inhibition of [3H]S-(p-F-Phe)-Har-L-Har-KY-NH2 binding to Thrombin receptor 1 (PAR-1) on membranes from CHRF cells
pEC50: −log10 of the molar value.

# Smiles code, pEC50
measured = [
    ("N=C(N)NCCC[C@H](NC(=O)[C@H](CC1CCCCC1)NC(=O)c1ccc(Cl)nc1)C(=O)N[C@@H](Cc1ccccc1)C(N)=O", 5.34),
    ("CC(C)C[C@H](NC(=O)[C@H](CC(C)C)NC(=O)[C@H](Cc1ccccc1)NC(=O)[C@@H](N)CO)C(=O)N[C@@H](CCCNC(=N)N)C(=O)N[C@@H](CC(N)=O)C(N)=O", 6.55),
    ("N=C(N)NCCC[C@H](NC(=O)[C@H](CC1CCCCC1)NC(=O)C=Cc1cccnc1)C(=O)N[C@@H](Cc1ccccc1)C(N)=O", 5.59),
    ("COc1ccc(C=CC(=O)Nc2nnc(C(=O)N[C@@H](CC3CCCCC3)C(=O)N[C@@H](CCCNC(=N)N)C(=O)N[C@@H](Cc3ccccc3)C(N)=O)[nH]2)cc1", 5.25),
    ("N=C(N)NCCC[C@H](NC(=O)[C@H](CC1CCCCC1)NC(=O)c1cccnc1N)C(=O)N[C@@H](Cc1ccccc1)C(N)=O", 5.10),
    ("N=C(N)NCCC[C@H](NC(=O)[C@H](CC1CCCCC1)NC(=O)c1nnc(NC(=O)C=Cc2ccccc2Cl)[nH]1)C(=O)N[C@@H](Cc1ccccc1)C(N)=O", 5.96),
    ("N=C(N)NCCC[C@H](NC(=O)[C@H](CC1CCCCC1)NC(=O)c1cc2ccccc2o1)C(=O)N[C@@H](Cc1ccccc1)C(N)=O", 4.90),
]

====

# Method notes: Activation of human platelet aggregation (gel-filtered platelets) induced by alpha thrombin
pEC50: −log10 of the molar value.
Catalogue of pEC50 values

# Smiles code, pEC50
rows = [
    ("N=C(N)NCCC[C@H](NC(=O)[C@H](CC1CCCCC1)NC(=O)c1nnc(NC(=O)C=Cc2ccccc2)[nH]1)C(=O)N[C@@H](Cc1ccccc1)C(N)=O", 4.68),
    ("N=C(N)NCCC[C@H](NC(=O)[C@H](Cc1ccccc1)NC(=O)c1ccc2nc[nH]c2c1)C(=O)N[C@@H](Cc1ccccc1)C(N)=O", 5.31),
    ("N=C(N)NCCC[C@H](NC(=O)[C@H](Cc1ccccc1)NC(=O)c1nnc(N)[nH]1)C(=O)N[C@@H](Cc1ccccc1)C(N)=O", 6.00),
    ("N=C(N)NCCC[C@H](NC(=O)[C@H](CC1CCCCC1)NC(=O)c1nnc(N)[nH]1)C(=O)N[C@@H](Cc1ccccc1)C(N)=O", 6.12),
    ("N=C(N)NCCC[C@H](NC(=O)[C@H](CC1CCCCC1)NC(=O)c1nnc(N)[nH]1)C(=O)N[C@H](C(N)=O)c1ccccc1", 5.51),
    ("N=C(N)NCCC[C@H](NC(=O)[C@H](CC1CCCCC1)NC(=O)c1nnc(NC(=O)C=Cc2ccc(F)cc2)[nH]1)C(=O)N[C@@H](Cc1ccccc1)C(N)=O", 5.10),
]
